- Tested on: K562 CRISPRi cells
- Assay procedure: Perturb-seq pooled growth measurement (sgRNA counts, growth phenotype γ, relative activity)
- Assay type: cell-based, human
- Cond: γ relative to perfectly matched sgRNA (_00) of the same gene, day 5
Measurement label: relative_activity_day5
Numbers only.

// known answers, use as guide
# input For K562 CRISPRi cells, provide relative_activity_day5 of RPS18_ + _33239917.23-P1P2_00 (guide GCTGCGATGCCGCTGGATCA; listed as DNA, chemistry not fully specified) please.
# output 1

# input Next entry: CAD_ + _27440280.23-P1P2_00 (guide GGCTGGAGAGAAGCCGGGCG; listed as DNA, chemistry not fully specified)
# output 1

As a next step, examine the substance that follows.
# input For K562 CRISPRi cells, provide relative_activity_day5 of MTOR_ + _11322547.23-P1P2_00 (guide GGGCAGGGGGCCTGAAGCGG; listed as DNA, chemistry not fully specified) please.
# output 1

----------
- Test system: K562 CRISPRi cells
- Assay procedure: Perturb-seq pooled growth measurement (sgRNA counts, growth phenotype γ, relative activity)
- Format: cell-based, human
- Cond: pooled growth phenotype γ of the Perturb-seq sgRNA, day 10, K562 CRISPRi cells
Consider the following substances; for each one, report its gamma_day10.
Answers are plain numbers.

# input Fill blank: measured gamma_day10 of the substance GNB2L1_ + _180670873.23-P1P2_07 (guide GTGCAAGGCGGGGGCAGGAG; listed as DNA, chemistry not fully specified) is ____.
# output −0.2733

# input Next entry: GATA1_ −_48645022.23-P1P2_08 (guide GTGAGCTTTCCACATCCCCA; listed as DNA, chemistry not fully specified)
# output −0.4893

# input Next entry: EIF2S1_ −_67827080.23-P1P2_02 (guide GAGCGCAGCGCACGCTGAGG; listed as DNA, chemistry not fully specified)
# output −0.4556

Respectfully, I request gamma_day10 for each entry included below.
1. RPS15_ −_1438413.23-P1P2_01 (guide GACCAAACCGATCTCTTCTG; listed as DNA, chemistry not fully specified)
2. MTOR_ + _11322547.23-P1P2_07 (guide GGGCAGGGGGTCTGAAGCGG; listed as DNA, chemistry not fully specified)
3. ALDOA_ + _30077139.23-P1P2_13 (guide GGTCACCAGGACCCCTTTTG; listed as DNA, chemistry not fully specified)

# output
0.001422
−0.4799
−0.0002203
